biological target: HLA-B*27:05; test: IEDB peptide-MHC binding, purified MHC/direct/fluorescence; filed as Kd, often an IC50 or EC50 that approximates it; bounds were set here for any values at or beyond the usual limits of such assays; conditions: source organism: West Nile virus

>  <RECORD SEQUENCE>
YRLRGEERK

>  <SYSTEM NAME>
HLA-B*27:05

>  <Kd (nM)>
883

$$$$

* * *

target: HLA-A*26:01; assay: IEDB peptide-MHC binding, purified MHC/competitive/fluorescence; filed as Kd, often an IC50 or EC50 that approximates it; bounds were set here for any values at or beyond the usual limits of such assays; conditions: source organism: Escherichia coli 536

>  <RECORD SEQUENCE>
RVGIYFGMK

>  <Kd>
≥ 20 µM

$$$$
>  <RECORD SEQUENCE>
KLYPNVDFY

>  <Kd>
≥ 20 µM

$$$$

* * *

biological target: HLA-A*24:02; test: IEDB peptide-MHC binding, purified MHC/competitive/fluorescence; bounds were set here for any values at or beyond the usual limits of such assays; conditions: source organism: West Nile virus
pIC50: −log10 of the molar value.
RECORDED ENDPOINT: pIC50

>  <RECORD SEQUENCE>
IMSKDKPTI

>  <RECORDED ENDPOINT>
pIC50

>  <RESULT VALUE>
5.70

$$$$

* * *

target: HLA-A*02:01; assay: IEDB peptide-MHC binding, purified MHC/direct/fluorescence; filed as Kd, often an IC50 or EC50 that approximates it; bounds were set here for any values at or beyond the usual limits of such assays; settings: source organism: Cryptosporidium parvum Iowa II

>  <RECORD SEQUENCE>
KQMSQPYAV

>  <SYSTEM NAME>
HLA-A*02:01

>  <Kd, nM>
2

$$$$

* * *

molecular target: HLA-B*15:01; experiment: IEDB peptide-MHC binding, purified MHC/direct/fluorescence; filed as Kd, often an IC50 or EC50 that approximates it; bounds were set here for any values at or beyond the usual limits of such assays; settings: source organism: Cryptosporidium parvum

>  <RECORD SEQUENCE>
KHNSAESAK

>  <Kd>
≥ 20 µM

$$$$

* * *

biological target: HLA-A*80:01; assay: IEDB peptide-MHC binding, purified MHC/direct/fluorescence; filed as Kd, often an IC50 or EC50 that approximates it; bounds were set here for any values at or beyond the usual limits of such assays; details: source organism: Mammarenavirus lassaense
pKd: −log10 of the molar value.

>  <RECORD SEQUENCE>
LIDGRTSFY

>  <pKd>
7.83

$$$$

* * *

target: HLA-B*18:01; assay: IEDB peptide-MHC binding, purified MHC/competitive/fluorescence; filed as Kd, often an IC50 or EC50 that approximates it; bounds were set here for any values at or beyond the usual limits of such assays; settings: source organism: Salmonella enterica subsp. enterica serovar Typhi

>  <RECORD SEQUENCE>
HVTQHWPQL

>  <Kd>
≥ 20 µM

$$$$

* * *

biological target: HLA-A*26:03; experiment: IEDB peptide-MHC binding, purified MHC/direct/fluorescence; filed as Kd, often an IC50 or EC50 that approximates it; bounds were set here for any values at or beyond the usual limits of such assays; conditions: source organism: Burkholderia mallei ATCC 23344
RECORDED ENDPOINT: Kd (nM)

>  <RECORD SEQUENCE>
DIIGGPCAH

>  <SYSTEM NAME>
HLA-A*26:03

>  <UNIT OF MEASURE>
nM

>  <RESULT VALUE>
2000

$$$$
